B1: TRIM43 (parent)
chain: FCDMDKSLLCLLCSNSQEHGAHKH

- Variants of: B1
- ASSAY OVERVIEW: protein stability index of a GFP-peptide fusion (GPS, HEK-293T) (PSI 1-6); higher = more stable;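 also: lentivirally expressed fusions sorted by FACS into six bins by GFP to DsRed ratio, PSI derived from sequencing read proportions per bin multiplied by bin number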
- TEST PARAMETERS: c terminus: a fixed tail appended

SEQUENCE CONTENT	protein stability index
FCDMDKSLLCLLCSNSQEHQAHKH [G20Q]	1.95
FCDMDKSLLCLLCSNSQEHGARKH [H22R]	1.84
FCDMDKSLLCLLLSNSQEHGAHKH [C13L]	2.07
FCDMDKSLLILLCSNSQEHGAHKH [C10I]	2.06
FCDMDKSLLCLLCSNSMEHGAHKH [Q17M]	1.58
SCDMDKSLLCLLCSNSQEHGAHKH [F1S]	3.72
FCDMDKSLLCLLCSNSQEHGATKH [H22T]	1.79
FCDMDKSLLCLLCSHSQEHGAHKH [N15H]	1.55
FCDMDGSLLCLLCSNSQEHGAHKH [K6G]	2.18
FCDMDKSVLCLLCSNSQEHGAHKH [L8V]	2.72
FCDMDASLLCLLCSNSQEHGAHKH [K6A]	2.06
FCDMDKSLLCFLCSNSQEHGAHKH [L11F]	2.04
FCDMDKSLLCLLCSNSQEHGAEKH [H22E]	1.53
FCDMDKSLLCLLCSKSQEHGAHKH [N15K]	2.26
FCDMDKSLLCLLCSNSQEHGAHAH [K23A]	2.06
FCDMWKSLLCLLCSNSQEHGAHKH [D5W]	3.29
FCDMDKSLLCLLCSNSQEHGACKH [H22C]	2.59
FCDMDKNLLCLLCSNSQEHGAHKH [S7N]	2.22
FCDMDKSLLCLLCSPSQEHGAHKH [N15P]	1.34
FCDMDKSLLCLLPSNSQEHGAHKH [C13P]	2.13
FCDMDKSLLCLLCSNSQELGAHKH [H19L]	1.42
FCDMDNSLLCLLCSNSQEHGAHKH [K6N]	2.32
FCDMDKSLLCLLCSNTQEHGAHKH [S16T]	2.07
FCDMDKSSLCLLCSNSQEHGAHKH [L8S]	3.1
FCDMDKSLYCLLCSNSQEHGAHKH [L9Y]	1.46
FCDMDKSLLPLLCSNSQEHGAHKH [C10P]	2.3
FCDMDKSLLCLLCSNVQEHGAHKH [S16V]	2.23
FCDMDKSLLCLSCSNSQEHGAHKH [L12S]	2.65
FCDMDKSLICLLCSNSQEHGAHKH [L9I]	1.91
FCDMDKSLLCLLCSNSQEHLAHKH [G20L]	1.74
FCDMDKSLLCLLCSNSQEHGAHKR [H24R]	1.86
FCDMDKDLLCLLCSNSQEHGAHKH [S7D]	2.48
FCDMDKSGLCLLCSNSQEHGAHKH [L8G]	2.3

Provenance of the data: the supplement of paper PMC10567573
